Target: Thyrotropin receptor (Homo sapiens) (UniProt P16473)
Sequence (P16473 whole entry, looked up): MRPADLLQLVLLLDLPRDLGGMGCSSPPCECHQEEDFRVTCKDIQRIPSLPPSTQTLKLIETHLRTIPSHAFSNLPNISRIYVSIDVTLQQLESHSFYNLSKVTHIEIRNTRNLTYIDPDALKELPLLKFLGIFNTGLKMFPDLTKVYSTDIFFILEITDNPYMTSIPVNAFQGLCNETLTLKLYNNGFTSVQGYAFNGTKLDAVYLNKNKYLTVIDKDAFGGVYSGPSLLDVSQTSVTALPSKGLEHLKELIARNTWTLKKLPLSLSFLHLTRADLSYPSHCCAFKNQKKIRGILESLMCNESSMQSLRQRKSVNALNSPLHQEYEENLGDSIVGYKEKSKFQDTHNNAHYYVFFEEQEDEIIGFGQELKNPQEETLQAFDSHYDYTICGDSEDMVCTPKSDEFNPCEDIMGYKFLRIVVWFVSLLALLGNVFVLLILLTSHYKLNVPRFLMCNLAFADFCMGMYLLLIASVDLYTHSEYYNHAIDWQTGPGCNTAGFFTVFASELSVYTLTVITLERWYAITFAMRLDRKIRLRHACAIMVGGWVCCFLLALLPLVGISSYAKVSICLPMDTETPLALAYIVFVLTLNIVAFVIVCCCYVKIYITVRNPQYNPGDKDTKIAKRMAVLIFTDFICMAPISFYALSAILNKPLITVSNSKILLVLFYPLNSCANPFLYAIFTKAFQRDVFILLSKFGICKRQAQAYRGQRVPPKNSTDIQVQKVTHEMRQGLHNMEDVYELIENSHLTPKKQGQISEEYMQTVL
Experiment: qHTS for antagonists of the Thyroid Stimulation Hormone Receptor: Hit Validation in Primary Screen; also: nearly all actives have a fitted effect of over 80% in size
Details: TSHR-expressing cells, cAMP antagonist mode; series mostly up to 58 µM
In all, about 1,300 compounds went through this assay and about 380 (29%) were called active. Inconclusive results (about 37%) are left out. Calls follow the shape of the dose curve; as a rule, active = well fitted inhibition curve with a large enough effect; inconclusive = small, poorly fitted or top-dose-only effect; inactive = flat fitted curve, though single readings scatter. This is one part of the list.
Reply using exactly one outcome from active, inactive

Please review the following examples before continuing.
compound	target_entity	assigned_class
COc1ccc(CNC(=O)C2CCCN2C(=O)NCc2ccccc2)cc1 (configuration not stated)	Thyrotropin receptor (Homo sapiens) (UniProt P16473)	inactive
CCn1nnc2cc(C(=O)NCC(c3ccccc3OC)N(C)C)ccc21 (configuration not stated)	Thyrotropin receptor (Homo sapiens) (UniProt P16473)	inactive
CN1/C(=C/C(=O)c2nc(S(C)(=O)=O)ncc2Cl)C(C)(C)c2ccccc21	Thyrotropin receptor (Homo sapiens) (UniProt P16473)	active
O=C(O)c1cccc(NC2=C(Cl)C(=O)c3ccccc3C2=O)c1	Thyrotropin receptor (Homo sapiens) (UniProt P16473)	active
CS(=O)(=O)Cc1ccc(C(=O)Nc2cccc(-c3nc4ccccc4[nH]3)c2)cc1	Thyrotropin receptor (Homo sapiens) (UniProt P16473)	inactive
CSCC[C@H](NC(=O)c1ccc(Cl)c(S(=O)(=O)N2CCCC2)c1)c1nc2ccccc2[nH]1	Thyrotropin receptor (Homo sapiens) (UniProt P16473)	inactive
O=[N+]([O-])c1cc(Br)c(O)c(/C=N/Nc2nnnn2-c2cccc3ccccc23)c1	Thyrotropin receptor (Homo sapiens) (UniProt P16473)	active
COc1ccc(CN(C)C(=O)COC(=O)c2ccc(-c3ccccc3)cc2)c(OC)c1OC	Thyrotropin receptor (Homo sapiens) (UniProt P16473)	active

Outcome logged for CCCCN1C(=O)c2ccc(C(=O)Nc3ccc(C)c(S(=O)(=O)N(C)C)c3)cc2C1=O in this assay:
active

What outcome does the record of this test show for Cc1ccc(S(=O)(=O)N(CC(=O)NCc2ccccn2)c2ccc(Cl)cc2)cc1 ?
inactive

Called result for O=C(c1ccc(Cl)c(S(=O)(=O)N2CCCCC2)c1)N1CCCC1
inactive

Identify the outcome logged in this assay for the compound shown: CCCN1C(=O)c2ccc(C(=O)Nc3cc(C)ccc3O)cc2C1=O
inactive

---

Molecular target: Thyrotropin receptor (Homo sapiens) (UniProt P16473)
Assay: qHTS for antagonists of the Thyroid Stimulation Hormone Receptor: Hit Validation in Primary Screen; also: nearly all actives have a fitted effect of over 80% in size
Details: TSHR-expressing cells, cAMP antagonist mode; series mostly up to 58 µM
The campaign covered roughly 1,300 compounds. About 380 (29%) were called active. Another 37% or so got no clear call; they are omitted. Calls follow the shape of the dose curve; as a rule, active = well fitted inhibition curve with a large enough effect; inconclusive = small, poorly fitted or top-dose-only effect; inactive = flat fitted curve, though single readings scatter. This is one part of the list.
Use one of these outcomes when replying: yes (1) = active, no (0) = inactive

Past entries and their recorded results:
molecule	target_entity	assigned_class
CC(C)CC(=O)NC(NC(=S)Nc1sc2c(c1C#N)CCCC2)C(Cl)(Cl)Cl (configuration not stated)	Thyrotropin receptor (Homo sapiens) (UniProt P16473)	yes (1)
O=C(N[C@H]1C/C=C\C(c2cccc(F)c2)N(Cc2ccccc2)C(=O)C1)OCC1c2ccccc2-c2ccccc21 (some centres not stated)	Thyrotropin receptor (Homo sapiens) (UniProt P16473)	no (0)
O=C1C=C(c2ccc3[nH]ccc3c2)C[C@@H](c2ccc(Cl)cc2)C1	Thyrotropin receptor (Homo sapiens) (UniProt P16473)	no (0)
COc1cccc(OC)c1C(=O)Nc1sc2c(c1C#N)CCC2	Thyrotropin receptor (Homo sapiens) (UniProt P16473)	no (0)
COc1cc(NS(=O)(=O)c2ccc(C)cc2C)cc(OC)c1OC	Thyrotropin receptor (Homo sapiens) (UniProt P16473)	yes (1)
CCN(CC)c1ccc(NC2=C(Cl)C(=O)c3ccccc3C2=O)cc1	Thyrotropin receptor (Homo sapiens) (UniProt P16473)	yes (1)
O=c1cc(-c2ccccc2)nc2c(-c3ccccc3)c(C(F)(F)F)[nH]n12	Thyrotropin receptor (Homo sapiens) (UniProt P16473)	yes (1)
CCCCNc1c(-c2cccc(-c3ccc(OC)cc3)c2)nc2ccc(C)cn12	Thyrotropin receptor (Homo sapiens) (UniProt P16473)	yes (1)

Status in this test for N#Cc1nc(-c2ccccc2)oc1N1CCN(C(=O)c2ccco2)CC1 ?
no (0)

Identify the outcome logged in this assay for the molecule shown: Nc1nc2nc(-c3ccccc3)cc(C(F)(F)F)c2s1
no (0)

Field: outcome | Entry: N#Cc1c(Cl)nsc1NC(=O)c1ccccc1
yes (1)

Please indicate how the test categorized c1ccc2c(CSc3ncnc4nc[nH]c34)cccc2c1 .
yes (1)

Record request — test call for COc1ccc(-c2cn(CCCOCc3ccccc3)nn2)cc1
no (0)

Look up the recorded call for Cc1ccccc1NC(=O)CCc1c(C)nn(-c2ccc(N3CCOCC3)nn2)c1C in this test.
no (0)

---

Target: Thyrotropin receptor (Homo sapiens)
Assay: qHTS for antagonists of the Thyroid Stimulation Hormone Receptor: Hit Validation in Primary Screen; also: nearly all actives have a fitted effect of over 80% in size
Details: TSHR-expressing cells, cAMP antagonist mode; series mostly up to 58 µM
Hit rate of the full screen: of about 1,300 compounds, about 380 (29%) were called active. Not shown: some 37% with an inconclusive outcome. The call rests on the fitted dose curve; in most records, active means well fitted inhibition curve with a large enough effect; inconclusive means small, poorly fitted or top-dose-only effect; inactive means flat fitted curve, though single readings scatter. The list shows a part of the results.
Bench note: report the call from TRUE for active, FALSE for inactive

compound	target_entity	assigned_class
O=C(Nc1ccc2oc(-c3ccccc3F)nc2c1)c1ccc2c(c1)OCCO2	Thyrotropin receptor (Homo sapiens)	TRUE
O=C(N[C@H]1C/C=C\C(c2ccc(F)cc2)N(Cc2ccccc2)C(=O)C1)OCC1c2ccccc2-c2ccccc21 (some centres not stated)	Thyrotropin receptor (Homo sapiens)	FALSE
O=C(O)c1ccc(NC2=C/C(=N/S(=O)(=O)c3ccccc3)c3ccccc3C2=O)cc1	Thyrotropin receptor (Homo sapiens)	TRUE
O=C(Nc1cc(Sc2nc3ccccc3s2)cc([N+](=O)[O-])c1)c1ccccc1F	Thyrotropin receptor (Homo sapiens)	FALSE
CNc1c(NC(=O)c2ccc3c(c2)OCO3)c(=O)oc2ccccc12	Thyrotropin receptor (Homo sapiens)	FALSE

Lab log entry: COc1ccc(C(=O)Nc2ccc(Cl)c(S(=O)(=O)Nc3ccccc3OC)c2)cc1 — outcome as called in the assay?
TRUE

GET /call?item= CCOC(=O)c1c(S(=O)(=O)NCC(=O)Nc2cccc(C)c2C)c(C)n(C)c1C returns the recorded outcome of this test.
FALSE

---

Molecular target: Thyrotropin receptor (Homo sapiens)
Assay: qHTS for antagonists of the Thyroid Stimulation Hormone Receptor: Hit Validation in Primary Screen; also: nearly all actives have a fitted effect of over 80% in size
Settings: TSHR-expressing cells, cAMP antagonist mode; series mostly up to 58 µM
The whole screen tested about 1,300 compounds, of which about 380 (29%) were called active. About 37% were inconclusive and are not listed. Calls follow the shape of the dose curve; as a rule, active = well fitted inhibition curve with a large enough effect; inconclusive = small, poorly fitted or top-dose-only effect; inactive = flat fitted curve, though single readings scatter. The list shows a part of the results.
Field 'call' accepts active, inactive

Look over these answered cases.
smiles_text	assigned_class
Cc1cc(C)c(S(=O)(=O)c2c(C)cccc2C)c(Cl)n1	active
Cc1ccc(CNC(=O)CCNC(=O)N2CCn3c2nc2ccccc23)cc1	inactive

# outcome recorded in this test, key = Cc1ccc(CCNC(=O)CN2C(=O)COc3ccc(S(=O)(=O)N4CCC(C)CC4)cc32)cc1
inactive

---

Molecular target: Thyrotropin receptor (Homo sapiens) (UniProt P16473)
Assay: qHTS for antagonists of the Thyroid Stimulation Hormone Receptor: Hit Validation in Primary Screen; also: nearly all actives have a fitted effect of over 80% in size
Conditions: TSHR-expressing cells, cAMP antagonist mode; series mostly up to 58 µM
In all, about 1,300 compounds went through this assay and about 380 (29%) were called active. Another 37% or so got no clear call; they are omitted. Calls follow the shape of the dose curve; as a rule, active = well fitted inhibition curve with a large enough effect; inconclusive = small, poorly fitted or top-dose-only effect; inactive = flat fitted curve, though single readings scatter. This is one part of the list.
Allowed answers: 1 (active), -1 (inactive)

Solved entries:
smiles_text	assigned_class
CS(=O)(=O)c1ccc(N2CCN(c3ccccn3)CC2)c([N+](=O)[O-])c1	-1
N#Cc1ccc(Nc2nc(-c3ccc(O)cc3O)cs2)cc1C(F)(F)F	1

Entry CCOC(=O)N1CCN(C(=O)CCc2ccccc2)CC1 : call = ?
-1

I'd appreciate the recorded outcome for Cc1cc(C(=O)CCl)c(C)n1CCc1ccccc1 from this test.
1

---

Target: Thyrotropin receptor (Homo sapiens) (UniProt P16473)
Assay: qHTS for antagonists of the Thyroid Stimulation Hormone Receptor: Hit Validation in Primary Screen; also: nearly all actives have a fitted effect of over 80% in size
Settings: TSHR-expressing cells, cAMP antagonist mode; series mostly up to 58 µM
About 380 (29%) of roughly 1,300 compounds were called active. About 37% were inconclusive and are not listed. Calls come from the whole dose curve; as a rule, active = well fitted inhibition curve with a large enough effect; inconclusive = small, poorly fitted or top-dose-only effect; inactive = flat fitted curve, though single readings scatter. The list shows a part of the results.
Hello, when you answer, please use one of the following outcomes: active, inactive

Solved entries:
compound	assigned_class
CC1(C)CC(=O)c2c(nc3ccccc3c2N)C1	inactive
COc1ccc(-c2csc3ncn(Cc4ccccc4)c(=O)c23)cc1	inactive
O=S(=O)(C/C(=C/CO)S(=O)(=O)c1ccccc1)c1ccccc1	inactive
CC(C)Cc1nc2oc3c(Cl)ncnc3c2c2c1CCC2	active
COc1ccc(/C=C/C(=O)Nc2nc(C)cc(C)n2)cc1OC	inactive
Cc1[nH]n(-c2ccccc2)c(=O)c1N=Nc1c(O)cc(S(=O)(=O)N(C)C)c2ccccc12	active

Kindly provide the recorded test outcome for the following compound: O=C1c2cccc3c(O)ccc(c23)C(=O)N1c1ccc(Cl)cc1
active

Tell me the recorded outcome of this test for Fc1ccc2[nH]c3c(N4CCN(c5ccccc5)CC4)ncnc3c2c1 .
active

Could you check what this test reported for Cn1c(N=Nc2ccc(N3CCOCC3)cc2)[n+](C)c2ccccc21 ?
active

Per the records of this test, what outcome belongs to Oc1c(Cl)cc(Cl)c(Cl)c1Cc1c(O)c(Cl)cc(Cl)c1Cl ?
active

Source listed as PubChem BioAssay AID602292.
